- test name: in vitro
- study conditions: mouse, microsomes, pH 7.5
metric name: half-life at 1 µM

// returns reported half-life at 1 µM for input C[C@](O)(Cn1cc(F)cn1)C(=O)Nc1cnc(C#N)c(C(F)(F)F)c1 [Compound 21a]
≥ 48.5 min

----------
Endpoint: IC50. System: UniProt:P10275. Items follow.
Sequence (P10275 whole entry): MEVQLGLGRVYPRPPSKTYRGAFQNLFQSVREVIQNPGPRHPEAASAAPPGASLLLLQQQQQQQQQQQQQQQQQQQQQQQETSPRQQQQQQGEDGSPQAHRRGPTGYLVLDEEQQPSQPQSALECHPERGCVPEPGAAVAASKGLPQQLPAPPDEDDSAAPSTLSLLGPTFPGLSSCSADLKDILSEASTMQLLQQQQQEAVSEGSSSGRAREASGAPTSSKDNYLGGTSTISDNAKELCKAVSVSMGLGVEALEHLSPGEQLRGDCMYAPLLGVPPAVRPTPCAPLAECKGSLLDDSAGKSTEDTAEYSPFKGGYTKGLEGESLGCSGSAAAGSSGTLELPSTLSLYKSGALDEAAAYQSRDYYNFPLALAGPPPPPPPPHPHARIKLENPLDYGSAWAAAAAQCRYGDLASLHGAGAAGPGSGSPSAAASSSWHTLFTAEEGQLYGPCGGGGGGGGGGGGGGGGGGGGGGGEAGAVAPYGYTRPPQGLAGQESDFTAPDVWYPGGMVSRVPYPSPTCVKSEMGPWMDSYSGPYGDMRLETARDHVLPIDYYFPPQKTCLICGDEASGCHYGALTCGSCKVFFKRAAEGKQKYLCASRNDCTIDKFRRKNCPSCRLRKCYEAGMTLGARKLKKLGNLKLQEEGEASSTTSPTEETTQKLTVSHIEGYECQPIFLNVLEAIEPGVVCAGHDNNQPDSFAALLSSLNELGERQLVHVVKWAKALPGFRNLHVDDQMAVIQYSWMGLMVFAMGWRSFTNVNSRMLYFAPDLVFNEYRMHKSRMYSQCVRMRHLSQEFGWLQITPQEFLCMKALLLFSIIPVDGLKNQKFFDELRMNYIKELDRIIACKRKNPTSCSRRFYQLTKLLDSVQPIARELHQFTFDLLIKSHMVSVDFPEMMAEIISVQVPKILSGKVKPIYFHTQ
Report the figure in nM without appending any unit label.

compound: C[C@](O)(Cn1cc(C#N)cn1)C(=O)Nc1ccc(C#N)cc1Cl [Compound 29j]
IC50 / nM: 1120
--
compound: C[C@](O)(Cn1cc(F)cn1)C(=O)Nc1ccc(C#N)cc1Cl [Compound 29i]
IC50 / nM: 1230
--
compound: Cc1c(NC(=O)[C@@](C)(O)Cn2cc(C#N)cn2)ccc(C#N)c1Cl [Compound 29k]
IC50 / nM: 1700

Next compound, please.
Look up IC50: C[C@](O)(Cn1cc(-c2ccc(C#N)cc2)nn1)C(=O)Nc1ccc(C#N)c(C(F)(F)F)c1 [Compound 29o]
62
